Test system: SF-295 CNS
Experiment Description: NCI-60 one-dose screen, 48 h (100 = growth as untreated, 0 = no growth, -100 = all killed)
Protocol Conditions: 10 µM unless noted
The panel holds about 83,000 compounds, 20% with a hit somewhere; the sample as a whole holds those more often.
Catalogue of growth readings, one per entry.
Answer format: numeric, % implied, no suffix.

Sample answers from the record:
{"Compound": "Cc1cc2c(C(=O)NCC#N)cccc2n1-c1nc2c(c(NCc3ccccc3)n1)CCCC2", "Quantity Measured": "growth", "Unit Spec": "%", "Numeric Result": -76.2}
{"Compound": "NC(=NCCCOc1ccc(F)cc1)Nc1ccc(Cl)cc1", "Quantity Measured": "growth", "Unit Spec": "%", "Numeric Result": 47.5}
{"Compound": "O=C(c1nc2ccccc2[nH]1)C1C(c2ccc(Cl)cc2)C2CC3CCCC[C@H]3N2[C@@]12C(=O)Nc1cc(Cl)ccc12 (stereo not given in full)", "Quantity Measured": "growth", "Unit Spec": "%", "Numeric Result": 32.6}
{"Compound": "Cc1nc2ccc(Cl)cn2c1-c1nnc(SCc2ccc([N+](=O)[O-])cc2)o1", "Quantity Measured": "growth", "Unit Spec": "%", "Numeric Result": 74.6}

For the next question, use this compound.
Exercise: Form field: reported growth of `O=C1c2ccccc2C(=O)c2c([N+](=O)[O-])ccc(Cl)c21`
Key: 116
